target: Mucolipin-3 (Homo sapiens) (UniProt Q8TDD5); experiment: activators of human MCOLN3 channel – cell-based, fluorescence, dose response, round 3, late-stage follow-up (AID 602129); conditions: HEK293 TRPML3 cells, calcium fluorescence
Sequence (Q8TDD5 whole entry, looked up): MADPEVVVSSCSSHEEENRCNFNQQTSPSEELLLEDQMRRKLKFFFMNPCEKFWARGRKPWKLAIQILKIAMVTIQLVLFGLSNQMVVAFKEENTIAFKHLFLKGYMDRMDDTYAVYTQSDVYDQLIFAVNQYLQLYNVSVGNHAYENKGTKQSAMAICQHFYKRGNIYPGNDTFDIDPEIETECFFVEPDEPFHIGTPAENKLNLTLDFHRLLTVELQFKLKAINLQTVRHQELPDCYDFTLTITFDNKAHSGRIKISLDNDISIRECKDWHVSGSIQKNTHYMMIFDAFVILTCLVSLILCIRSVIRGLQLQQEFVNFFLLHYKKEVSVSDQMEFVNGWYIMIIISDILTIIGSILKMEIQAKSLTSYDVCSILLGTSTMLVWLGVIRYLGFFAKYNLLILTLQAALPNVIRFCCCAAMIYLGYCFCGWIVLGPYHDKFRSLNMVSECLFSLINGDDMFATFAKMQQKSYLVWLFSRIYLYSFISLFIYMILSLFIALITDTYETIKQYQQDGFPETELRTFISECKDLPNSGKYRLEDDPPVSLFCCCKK
Active and inactive are the calls of the source. The rule behind the calls is not given here.
Could you please pick one outcome from this set? 1 = active, 0 = inactive

Please review the following examples before continuing.
- smiles-text: "Cc1onc(-c2ccc(Cl)cc2)c1-c1ccnn1S(=O)(=O)c1ccc(Cl)cc1"
  group-label: 0
- smiles-text: "CCOc1ccc(S(=O)(=O)N2CCOCC2)c2ccccc12"
  group-label: 0
- smiles-text: "CC(C)Oc1ccc(S(=O)(=O)N2CCCCCC2)c2ccccc12"
  group-label: 0
- smiles-text: "COc1ccc(S(=O)(=O)N2CCCCCC2)c2ccccc12"
  group-label: 1
- smiles-text: "Cc1onc(-c2ccc(Cl)cc2)c1-c1ccn(S(=O)(=O)c2cccc(C(F)(F)F)c2)n1"
  group-label: 1
- smiles-text: "Cc1ccc(S(=O)(=O)n2ccc(-c3c(-c4ccc(F)cc4)noc3C)n2)cc1"
  group-label: 1
- smiles-text: "CCOc1ccc(S(=O)(=O)N(CC)CC)c2ccccc12"
  group-label: 0
- smiles-text: "COc1ccc(-c2noc(C)c2-c2ccn(S(=O)(=O)c3ccc(C)cc3)n2)cc1"
  group-label: 1
- smiles-text: "Cc1onc(-c2ccc(Cl)cc2)c1-c1ccn(S(=O)(=O)c2ccccc2)n1"
  group-label: 1
- smiles-text: "Cc1onc(-c2ccc(Cl)cc2)c1-c1ccn(S(=O)(=O)c2ccc(C(F)(F)F)cc2)n1"
  group-label: 0

**Query** In this assay, the call recorded for Cc1ccccc1S(=O)(=O)n1ccc(-c2c(-c3ccc(Cl)cc3)noc2C)n1 was what?
**Result** 1

**Query** In this assay, the call recorded for Cc1onc(-c2ccccc2)c1-c1ccnn1S(=O)(=O)c1ccc(Cl)cc1 was what?
**Result** 0

**Query** In this assay, the call recorded for Cc1onc(-c2ccc(Cl)cc2)c1-c1ccn(S(=O)(=O)c2ccccc2C(F)(F)F)n1 was what?
**Result** 1

**Query** In this assay, the call recorded for Cc1onc(-c2ccc(Cl)cc2)c1-c1ccn(S(=O)(=O)c2cccs2)n1 was what?
**Result** 0

**Query** In this assay, the call recorded for Cc1onc(-c2ccc(Cl)cc2)c1-c1ccn(S(=O)(=O)c2cccc3cccnc23)n1 was what?
**Result** 0

**Query** In this assay, the call recorded for CCOc1ccc(S(=O)(=O)N2CCCC2)c2ccccc12 was what?
**Result** 0

**Query** In this assay, the call recorded for Cc1ccc(S(=O)(=O)n2nccc2-c2c(-c3ccccc3)noc2C)cc1 was what?
**Result** 0

**Query** In this assay, the call recorded for Cc1onc(-c2ccc(Cl)cc2)c1-c1ccn(S(C)(=O)=O)n1 was what?
**Result** 0

**Query** In this assay, the call recorded for Cc1onc(-c2ccc(Cl)cc2)c1-c1ccn(S(=O)(=O)C(F)(F)F)n1 was what?
**Result** 0

**Query** In this assay, the call recorded for CCOc1ccc(S(=O)(=O)n2ccc(-c3c(-c4ccc(Cl)cc4)noc3C)n2)c2ccccc12 was what?
**Result** 0

**Query** In this assay, the call recorded for Cc1onc(-c2ccccc2)c1-c1ccn(S(=O)(=O)c2ccc(Cl)cc2)n1 was what?
**Result** 0

**Query** In this assay, the call recorded for COc1ccc(S(=O)(=O)n2ccc(-c3c(-c4ccc(Cl)cc4)noc3C)n2)cc1 was what?
**Result** 1

**Query** In this assay, the call recorded for CCOc1ccc(S(=O)(=O)N2CCN(C(=O)OC(C)(C)C)CC2)c2ccccc12 was what?
**Result** 0

* * *

target: Mucolipin-3 (Homo sapiens) (UniProt Q8TDD5); assay: activators of human MCOLN3 channel – cell-based, fluorescence, dose response, round 3, late-stage follow-up (AID 602129); conditions: HEK293 TRPML3 cells, calcium fluorescence
Active and inactive are the calls of the source. No rule for the calls is given here.
Could you please pick one outcome from this set? YES = active, NO = inactive

**Query** In this assay, the call recorded for CCOc1ccc(S(=O)(=O)N2CCSCC2)c2ccccc12 was what?
**Result** NO

**Query** In this assay, the call recorded for CCOc1ccc(S(=O)(=O)NCc2ccc(OC)cc2)c2ccccc12 was what?
**Result** NO

* * *

target: Mucolipin-3 (Homo sapiens); experiment: activators of human MCOLN3 channel – cell-based, fluorescence, dose response, round 3, late-stage follow-up (AID 602129); details: HEK293 TRPML3 cells, calcium fluorescence
Activity calls are given as the source filed them. How the calls were made is not given here.
Could you please pick one outcome from this set? active, inactive

- smiles-text: "Cc1ccc(S(=O)(=O)n2ccc(-c3c(-c4ccccc4)noc3C)n2)cc1"
  group-label: "active"
- smiles-text: "CCOc1ccc(S(=O)(=O)NCc2ccncc2)c2ccccc12"
  group-label: "inactive"
- smiles-text: "Cc1onc(-c2ccc(Cl)cc2)c1-c1ccn(S(=O)(=O)c2ccc(Cl)cc2)n1"
  group-label: "inactive"
- smiles-text: "Cc1onc(-c2ccc(Cl)cc2)c1-c1ccn(S(=O)(=O)c2cccc(Cl)c2)n1"
  group-label: "active"
- smiles-text: "Cc1onc(-c2ccc(Cl)cc2)c1-c1ccn(S(=O)(=O)c2ccccc2Cl)n1"
  group-label: "active"

**Query** In this assay, the call recorded for CCOc1ccc(S(=O)(=O)N2CCN(c3ccccc3Cl)CC2)c2ccccc12 was what?
**Result** inactive

**Query** In this assay, the call recorded for CCCCNS(=O)(=O)c1ccc(OCC)c2ccccc12 was what?
**Result** inactive

**Query** In this assay, the call recorded for CCOc1ccc(S(=O)(=O)N2CCCCC2)c2ccccc12 was what?
**Result** active

**Query** In this assay, the call recorded for Cc1onc(-c2ccc(Cl)cc2)c1-c1ccnn1S(=O)(=O)c1cccc(C(F)(F)F)c1 was what?
**Result** inactive
